Data credit: PubChem BioAssay

Assay: viability gain of MRP-1-high H69AR cells under doxorubicin, pilot screen, MRP-1 activator project, CellTiter-Glo, duplicate (AID 807);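 also: compound pretreatment 18-22 h then 72 h combined with doxorubicin; 0% = doxorubicin alone and 100% = vehicle without doxorubicin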
Settings: H69AR viability with doxorubicin, CellTiter-Glo luminescence; at 10 µM; stronger effect = higher value
Calls of active or inactive are those of the source.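 The calls were made as follows: active = viability increase at or above a cutoff of the median across tested compounds plus 3 SD (cut at about 8.5% in these data, passing the limit was not always enough); inconclusive = some gains above the cutoff, reason not given; inactive = the rest.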
quantity: viability increase

In: Requested read-out: viability increase. Entry: `COc1ccc(OC)c2sc(NC(=O)CCS(=O)(=O)c3ccccc3)nc12`
Out: -8.72% (inactive)

In: Requested read-out: viability increase. Entry: CCOc1cc2c(cc1OCC)C(c1ccc(O)c(OC)c1)NCC2 (stereo unspecified)
Out: -3.12% (inactive)

In: Requested read-out: viability increase. Entry: CC1COC2C(O1)N(S(C)(=O)=O)CCN2S(C)(=O)=O (stereo unspecified)
Out: 0.34% (inactive)

In: Requested read-out: viability increase. Entry: `COc1ccc(OC)c2[nH]c(=O)c(CCNC(=O)C(C)(C)C)cc12`
Out: 1.19% (inactive)

In: Requested read-out: viability increase. Entry: `Cc1ccc(S(=O)(=O)N2CCN(Cc3ccccc3C(F)(F)F)CC2)cc1`
Out: -1.45% (inactive)

In: Requested read-out: viability increase. Entry: O=C(Nc1ccccc1)OCC1CCCN2CCCCC12 (stereo unspecified)
Out: -0.94% (inactive)

In: Requested read-out: viability increase. Entry: `Cn1c(=O)c2c(nc(CN3CCCCC3)n2Cc2c(F)cccc2Cl)n(C)c1=O`
Out: -2.22% (inactive)

In: Requested read-out: viability increase. Entry: `COC(=O)CN(c1ccc(C(C)C)cc1)S(=O)(=O)c1c(C)[nH]c(=O)[nH]c1=O`
Out: -2.38% (inactive)

In: Requested read-out: viability increase. Entry: `CCCCN1C(=O)/C(=C2\SC(N3CCCCC3)=NC2=O)c2ccccc21`
Out: -2.31% (inactive)

In: Requested read-out: viability increase. Entry: `Cc1nc2c3ccccc3n(CC(=O)c3ccc(F)cc3)c(=O)n2n1`
Out: -2.79% (inactive)

In: Requested read-out: viability increase. Entry: CC1CCCN(c2ncnc3c2cnn3-c2ccc(Cl)cc2)C1 (stereo unspecified)
Out: 0.48% (inactive)
